Reported Highest drug concentration achieved with container is given for each of the following molecules.
experiment: Phase solubility diagram; details: container M2
Reply numerically in mM, unit not repeated.

Below, each entry is followed by its recorded Highest drug concentration achieved with container result.
{"compound.string": "COc1cc2c(cc1O)CC[C@@H]1[C@@H]2CC[C@]2(C)[C@@H](O)CC[C@@H]12", "assay.result": 6.42}
{"compound.string": "C#C[C@]1(O)CC[C@H]2[C@@H]3CCc4cc(O)ccc4[C@H]3CC[C@@]21C", "assay.result": 10.5}
{"compound.string": "Cc1c(Cl)cccc1Nc1ccccc1C(=O)O", "assay.result": 5.6}

Now take the following molecule into account.
Prompt: Please indicate Highest drug concentration achieved with container recorded for N[C@@H](Cc1ccc(N(CCCl)CCCl)cc1)C(=O)O
Response: 16.1

meta.source: paper PMC4861662
